Each recorded value in this set is attributed to ChEMBL document CHEMBL1275449.

Kindly state IC50 for each of the entries shown.
- Test system: Cryptococcus neoformans
- Run description: Antifungal activity against Cryptococcus neoformans ATCC 90113 after 72 hrs by CLSI method
- Type: functional, organism-based
- Condition details: ATCC 90113, 72 h
Give a bare numeral; the unit nM is implied.

IC50 reported for this compound CN(C/C=C/C#CC(C)(C)C)Cc1cccc2ccccc12 [TERBINAFINE] : 500

IC50 reported for this compound CC(=O)N1CCN(c2ccc(OCC3COC(Cn4ccnc4)(c4ccc(Cl)cc4Cl)O3)cc2)CC1 (stereo not given) [KETOCONAZOLE] : 100

IC50 reported for this compound C=CCCCCCCCCC(=O)O [UNDECYLENIC ACID] : 25300

IC50 reported for this compound C[C@@H]1[C@H](O)[C@@H](C)/C=C/C=C/C=C/C=C/C=C/C=C/C=C/[C@H](O[C@@H]2O[C@H](C)[C@@H](O)[C@H](N)[C@@H]2O)C[C@@H]2O[C@](O)(C[C@@H](O)C[C@@H](O)[C@H](O)CC[C@@H](O)C[C@@H](O)CC(=O)O[C@H]1C)C[C@H](O)[C@H]2C(=O)O [AMPHOTERICIN B] : 300

====

- System: Candida albicans
- Run description: Antifungal activity against Candida albicans ATCC 200955 after 48 hrs by CLSI method
- Assay type: functional, organism-based
- Condition details: ATCC 200955, 48 h
Observed property: log10(MIC) (log10 of the value in µM)
Please keep in mind that the values are log10 of MIC expressed in µM.

Tested system Candida albicans; log10(MIC) recorded for `CCCCCCCCCCCC#CCCCCC(=O)O` was 1.05

Tested system Candida albicans; log10(MIC) recorded for `CC[C@H](C)C[C@H](C)CCCCCCCCC(=O)N[C@H]1C[C@@H](O)[C@@H](NCCN)NC(=O)[C@@H]2[C@@H](O)CCN2C(=O)[C@H]([C@H](O)CCN)NC(=O)[C@H]([C@H](O)[C@@H](O)c2ccc(O)cc2)NC(=O)[C@@H]2C[C@@H](O)CN2C(=O)[C@H]([C@@H](C)O)NC1=O` was -0.89

Tested system Candida albicans; log10(MIC) recorded for CC(=O)N1CCN(c2ccc(OCC3COC(Cn4ccnc4)(c4ccc(Cl)cc4Cl)O3)cc2)CC1 (stereo unspecified) was -2.00

Tested system Candida albicans; log10(MIC) recorded for `CCCCCC#CCC#CCC#CCC#CCCCC(=O)O` was 0.72

Tested system Candida albicans; log10(MIC) recorded for `C[C@@H]1[C@H](O)[C@@H](C)/C=C/C=C/C=C/C=C/C=C/C=C/C=C/[C@H](O[C@@H]2O[C@H](C)[C@@H](O)[C@H](N)[C@@H]2O)C[C@@H]2O[C@](O)(C[C@@H](O)C[C@@H](O)[C@H](O)CC[C@@H](O)C[C@@H](O)CC(=O)O[C@H]1C)C[C@H](O)[C@H]2C(=O)O` was 0.43

Tested system Candida albicans; log10(MIC) recorded for `CCCCCCCCCCCCC#CCCCCC(=O)O` was 0.11

====

Kindly state MIC for each of the entries shown.
- System: Candida albicans
- Run description: Antifungal activity against Candida albicans ATCC 60193 after 48 hrs by CLSI method
- Type: functional, organism-based
- Condition details: ATCC 60193, 48 h
Give a bare numeral; the unit µM is implied.

MIC reported for this compound CC(=O)N1CCN(c2ccc(OCC3COC(Cn4ccnc4)(c4ccc(Cl)cc4Cl)O3)cc2)CC1 (configuration not stated) [KETOCONAZOLE] : 0.02

MIC reported for this compound `CCCCCC#CCC#CCC#CCC#CCCCC(=O)O` : 63.3

MIC reported for this compound CCCCCCCCCCCCC#CCCCCC(=O)O [6-NONADECYNOIC ACID] : 2.7

MIC reported for this compound CC[C@H](C)C[C@H](C)CCCCCCCCC(=O)N[C@H]1C[C@@H](O)[C@@H](NCCN)NC(=O)[C@@H]2[C@@H](O)CCN2C(=O)[C@H]([C@H](O)CCN)NC(=O)[C@H]([C@H](O)[C@@H](O)c2ccc(O)cc2)NC(=O)[C@@H]2C[C@@H](O)CN2C(=O)[C@H]([C@@H](C)O)NC1=O [CASPOFUNGIN] : 0.1

MIC reported for this compound C[C@@H]1[C@H](O)[C@@H](C)/C=C/C=C/C=C/C=C/C=C/C=C/C=C/[C@H](O[C@@H]2O[C@H](C)[C@@H](O)[C@H](N)[C@@H]2O)C[C@@H]2O[C@](O)(C[C@@H](O)C[C@@H](O)[C@H](O)CC[C@@H](O)C[C@@H](O)CC(=O)O[C@H]1C)C[C@H](O)[C@H]2C(=O)O [AMPHOTERICIN B] : 1

MIC reported for this compound CCCCCCCCCCCC#CCCCCC(=O)O [6-OCTADECYNOIC ACID] : 5.6

MIC reported for this compound OC(Cn1cncn1)(Cn1cncn1)c1ccc(F)cc1F [FLUCONAZOLE] : 0.6

====

- System: Candida albicans
- Run description: Antifungal activity against Fluconazole resistant Candida albicans clinical isolate 1 after 48 hrs by CLSI method
- Format: functional, organism-based
Observed property: MIC

MIC reported for this compound `CCCCCC#CCC#CCC#CCC#CCCCC(=O)O` : 42.2 µM

MIC reported for this compound `CCCCCCCCCC#CCCCCC(=O)O` : 99.1 µM

MIC reported for this compound `CCCCCCCCCCCCC#CCCCCC(=O)O` : 2.7 µM

====

- Tested on: Candida albicans
- Run description: Antifungal activity against Fluconazole resistant Candida albicans clinical isolate 17 after 48 hrs by CLSI method
- Format: functional, organism-based
Observed property: IC50 (µM)
Give a bare numeral; the unit µM is implied.

Tested system Candida albicans; IC50 recorded for `CC[C@H](C)C[C@H](C)CCCCCCCCC(=O)N[C@H]1C[C@@H](O)[C@@H](NCCN)NC(=O)[C@@H]2[C@@H](O)CCN2C(=O)[C@H]([C@H](O)CCN)NC(=O)[C@H]([C@H](O)[C@@H](O)c2ccc(O)cc2)NC(=O)[C@@H]2C[C@@H](O)CN2C(=O)[C@H]([C@@H](C)O)NC1=O` was 0.04

Tested system Candida albicans; IC50 recorded for CCCCCCCCCCCCCC#CCCCCC(=O)O [6-ICOSYNOIC ACID] was 55

Tested system Candida albicans; IC50 recorded for `CCCCCCCCCC#CCCCCC(=O)O` was 23.3

Tested system Candida albicans; IC50 recorded for `C[C@@H]1[C@H](O)[C@@H](C)/C=C/C=C/C=C/C=C/C=C/C=C/C=C/[C@H](O[C@@H]2O[C@H](C)[C@@H](O)[C@H](N)[C@@H]2O)C[C@@H]2O[C@](O)(C[C@@H](O)C[C@@H](O)[C@H](O)CC[C@@H](O)C[C@@H](O)CC(=O)O[C@H]1C)C[C@H](O)[C@H]2C(=O)O` was 0.2

Tested system Candida albicans; IC50 recorded for CC(=O)N1CCN(c2ccc(OCC3COC(Cn4ccnc4)(c4ccc(Cl)cc4Cl)O3)cc2)CC1 (configuration not stated) was 0.3

Tested system Candida albicans; IC50 recorded for `CCCCCCCCCCC#CCCCCC(=O)O` was 18.8

Tested system Candida albicans; IC50 recorded for `CCCCCC#CCC#CCC#CCC#CCCCC(=O)O` was 3.5

Tested system Candida albicans; IC50 recorded for `CCCCCCCCCCCC#CCCCCC(=O)O` was 3.6

Tested system Candida albicans; IC50 recorded for `OC(Cn1cncn1)(Cn1cncn1)c1ccc(F)cc1F` was 163

Tested system Candida albicans; IC50 recorded for `CCCCCCCCCCCCC#CCCCCC(=O)O` was 1.5

====

- Tested on: Trichophyton rubrum
- Run description: Antifungal activity against Trichophyton rubrum ATCC 10218 by CLSI method
- Format: functional, organism-based
Observed property: pIC50
// returns pIC50 (minus log10 of molar concentration), number only

pIC50 reported for this compound CC(=O)N1CCN(c2ccc(OCC3COC(Cn4ccnc4)(c4ccc(Cl)cc4Cl)O3)cc2)CC1 (stereo unspecified) [KETOCONAZOLE] : 7.70

pIC50 reported for this compound CCCCCCCCCCCC#CCCCCC(=O)O [6-OCTADECYNOIC ACID] : 5.57

pIC50 reported for this compound CCCCCCCCCCCCC#CCCCCC(=O)O [6-NONADECYNOIC ACID] : 6.00

pIC50 reported for this compound OC(Cn1cncn1)(Cn1cncn1)c1ccc(F)cc1F [FLUCONAZOLE] : 5.74

pIC50 reported for this compound `CCCCCC#CCC#CCC#CCC#CCCCC(=O)O` : 5.08

pIC50 reported for this compound C[C@@H]1[C@H](O)[C@@H](C)/C=C/C=C/C=C/C=C/C=C/C=C/C=C/[C@H](O[C@@H]2O[C@H](C)[C@@H](O)[C@H](N)[C@@H]2O)C[C@@H]2O[C@](O)(C[C@@H](O)C[C@@H](O)[C@H](O)CC[C@@H](O)C[C@@H](O)CC(=O)O[C@H]1C)C[C@H](O)[C@H]2C(=O)O [AMPHOTERICIN B] : 6.22

pIC50 reported for this compound `CCCCCCCCCCC#CCCCCC(=O)O` : 5.19

pIC50 reported for this compound `CCCCCCCCCC#CCCCCC(=O)O` : 5.06

pIC50 reported for this compound C=CCCCCCCCCC(=O)O [UNDECYLENIC ACID] : 3.57
